Target: human alpha2C receptors (Homo sapiens, UniProt P18825)
Sequence (P18825 1-462): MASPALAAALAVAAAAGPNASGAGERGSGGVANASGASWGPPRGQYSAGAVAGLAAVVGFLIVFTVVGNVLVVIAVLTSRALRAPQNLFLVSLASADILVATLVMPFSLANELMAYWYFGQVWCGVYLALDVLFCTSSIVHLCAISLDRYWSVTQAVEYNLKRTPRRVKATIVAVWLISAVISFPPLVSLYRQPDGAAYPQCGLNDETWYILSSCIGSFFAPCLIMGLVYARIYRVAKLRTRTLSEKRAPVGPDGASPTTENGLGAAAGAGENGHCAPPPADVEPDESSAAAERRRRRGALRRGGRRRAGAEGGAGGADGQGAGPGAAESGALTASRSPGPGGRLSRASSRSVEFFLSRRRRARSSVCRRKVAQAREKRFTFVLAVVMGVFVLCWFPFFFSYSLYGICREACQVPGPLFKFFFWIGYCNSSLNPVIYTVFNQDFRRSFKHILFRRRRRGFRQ
Test: Determination of alpha2C antagonistic activity in vitro (FLIPR calcium assay)
pIC50: −log10 of the molar value.
result-type: pIC50

Previously resolved entries follow.
O=C1C(=O)N([C@H]2CCCN(C[C@H]3COc4ccccc4O3)C2)C(=O)N1Cc1cccnc1 [example 143] | 8.86
CC(C)(C)N1CC(=O)N([C@H]2CCCN(C[C@H]3COc4ccccc4O3)C2)C1=O [example 117] | 8.70
CCN1CCN([C@H]2CCCN(C[C@H]3COc4ccccc4O3)C2)C1=O [example 16] | 9.24
COc1cccc2c1CN([C@H]1CCCN(C[C@H]3COc4ccccc4O3)C1)C2=O [example 55] | 10.54
COc1cc2c(cc1OC)C(=O)N([C@H]1CCCN(C[C@H]3COc4ccccc4O3)C1)C2 [example 68] | 8.55

I: CC(C)(C)C1CN([C@H]2CCCN(C[C@H]3COc4ccccc4O3)C2)C(=O)O1 (stereo partly drawn) [example 18]
II: CN(C)C(=O)CN1CC(=O)N([C@H]2CCCN(C[C@H]3COc4ccccc4O3)C2)C1=O [example 109]
Query block: In the pair I and II , the larger recorded pIC50 belongs to which? Pick one and reply with its label.
Result block: II
(II: 9.93, I: 9.63)

P: c1ccc2c(c1)OC[C@H](CN1CCC[C@H](n3cnc4cncnc43)C1)O2 [example 161]
Q: CNCc1nc2ccc(Cl)cc2n1[C@H]1CCCN(C[C@H]2COc3ccccc3O2)C1 [example 153]
Query block: Of P and Q , whose reported pIC50 is the larger number? // return label of chosen record
Result block: P
